# Species: Rattus norvegicus
# test.description: Open TG-GATES - Regimen: Single
# Assay type: toxicity, organism-based, Sprague-Dawley
# Set-up: regimen Single, gender Male, age 6 weeks
# assay.conditions: in vivo, po, 1000 mg/kg, 9 h, tissue Blood, route gavage, dose level High
# Fbg per entry
measured.endpoint: Fbg (mg/dL)

# compound, measured.endpoint, unit.spec, val
records = [
    ("CCOC(=O)CCC(=O)O[C@H]1[C@H](O[C@@H]2[C@@H](C)[C@H](O[C@H]3C[C@@](C)(OC)[C@@H](O)[C@H](C)O3)[C@@H](C)C(=O)O[C@H](CC)[C@@](C)(O)[C@H](O)[C@@H](C)C(=O)[C@H](C)C[C@@]2(C)O)O[C@H](C)C[C@@H]1N(C)C [ERYTHROMYCIN ETHYLSUCCINATE]", "Fbg", "mg/dL", 304.8),
    ("COc1ccc2[nH]c([S+]([O-])Cc3ncc(C)c(OC)c3C)nc2c1 (stereo not given) [OMEPRAZOLE]", "Fbg", "mg/dL", 228.6),
    ("CC(C)OC(=O)C(C)(C)Oc1ccc(C(=O)c2ccc(Cl)cc2)cc1 [FENOFIBRATE]", "Fbg", "mg/dL", 283.6),
    ("NC(N)=Nc1nc(CSCCC(N)=NS(N)(=O)=O)cs1 [FAMOTIDINE]", "Fbg", "mg/dL", 222.2),
    ("COC1=CC(=O)C[C@@H](C)[C@]12Oc1c(Cl)c(OC)cc(OC)c1C2=O [GRISEOFULVIN]", "Fbg", "mg/dL", 202.4),
]

---

# Organism: Rattus norvegicus
# test.description: Open TG-GATES - Regimen: Single
# Type: toxicity, organism-based, Sprague-Dawley
# Parameters: regimen Single, gender Male, age 6 weeks
# assay.conditions: in vivo, po, 100 mg/kg, 3 h, tissue Plasma, route gavage, dose level Low
# LDH per entry

# compound, unit.spec, LDH
records = [
    ("NC(N)=Nc1nc(CSCCC(N)=NS(N)(=O)=O)cs1 [FAMOTIDINE]", "IU/L", 186.2),
    ("CCOC(=O)CCC(=O)O[C@H]1[C@H](O[C@@H]2[C@@H](C)[C@H](O[C@H]3C[C@@](C)(OC)[C@@H](O)[C@H](C)O3)[C@@H](C)C(=O)O[C@H](CC)[C@@](C)(O)[C@H](O)[C@@H](C)C(=O)[C@H](C)C[C@@]2(C)O)O[C@H](C)C[C@@H]1N(C)C [ERYTHROMYCIN ETHYLSUCCINATE]", "IU/L", 147.2),
    ("COc1ccc2[nH]c([S+]([O-])Cc3ncc(C)c(OC)c3C)nc2c1 (centres undefined) [OMEPRAZOLE]", "IU/L", 180.6),
    ("COC1=CC(=O)C[C@@H](C)[C@]12Oc1c(Cl)c(OC)cc(OC)c1C2=O [GRISEOFULVIN]", "IU/L", 130.4),
]

---

# Species: Rattus norvegicus
# test.description: Open TG-GATES - Regimen: Daily Repeat
# Type: toxicity, organism-based, Sprague-Dawley
# Design: regimen Daily Repeat, gender Male, age 6 weeks
# assay.conditions: in vivo, po, 1000 mg/kg, […], tissue Liver, route gavage, dose level High, time 7 day
# LIVER per entry

# compound, LIVER
rows = [
    ("NC(N)=Nc1nc(CSCCC(N)=NS(N)(=O)=O)cs1", "12.2 g"),
    ("COc1ccc2[nH]c([S+]([O-])Cc3ncc(C)c(OC)c3C)nc2c1 (stereo not given)", "18.1 g"),
    ("CCOC(=O)CCC(=O)O[C@H]1[C@H](O[C@@H]2[C@@H](C)[C@H](O[C@H]3C[C@@](C)(OC)[C@@H](O)[C@H](C)O3)[C@@H](C)C(=O)O[C@H](CC)[C@@](C)(O)[C@H](O)[C@@H](C)C(=O)[C@H](C)C[C@@]2(C)O)O[C@H](C)C[C@@H]1N(C)C [ERYTHROMYCIN ETHYLSUCCINATE]", "10.1 g"),
    ("COC1=CC(=O)C[C@@H](C)[C@]12Oc1c(Cl)c(OC)cc(OC)c1C2=O", "13.5 g"),
    ("CCOc1ccc(NC(=O)CC(C)O)cc1 (stereo not given)", "12.7 g"),
]

---

# Species on record: Rattus norvegicus
# test.description: Open TG-GATES - Regimen: Single
# Type: toxicity, organism-based, Sprague-Dawley
# Design: regimen Single, gender Male, age 6 weeks
# assay.conditions: in vivo, po, 100 mg/kg, 6 h, tissue Plasma, route gavage, dose level Low
measured.endpoint: TC (mg/dL)

# compound, measured.endpoint, val
records = [
    ("NC(N)=Nc1nc(CSCCC(N)=NS(N)(=O)=O)cs1 [FAMOTIDINE]", "TC", 82),
    ("COc1ccc2[nH]c([S+]([O-])Cc3ncc(C)c(OC)c3C)nc2c1 (centres undefined) [OMEPRAZOLE]", "TC", 86.2),
    ("COC1=CC(=O)C[C@@H](C)[C@]12Oc1c(Cl)c(OC)cc(OC)c1C2=O [GRISEOFULVIN]", "TC", 80.8),
    ("CCOC(=O)CCC(=O)O[C@H]1[C@H](O[C@@H]2[C@@H](C)[C@H](O[C@H]3C[C@@](C)(OC)[C@@H](O)[C@H](C)O3)[C@@H](C)C(=O)O[C@H](CC)[C@@](C)(O)[C@H](O)[C@@H](C)C(=O)[C@H](C)C[C@@]2(C)O)O[C@H](C)C[C@@H]1N(C)C [ERYTHROMYCIN ETHYLSUCCINATE]", "TC", 69.8),
]

---

# KIDNEY_L per entry
# Species on record: Rattus norvegicus
# test.description: Open TG-GATES - Regimen: Daily Repeat
# Assay type: toxicity, organism-based, Sprague-Dawley
# Parameters: regimen Daily Repeat, gender Male, age 6 weeks
# assay.conditions: in vivo, po, 100 mg/kg, […], tissue Kidney, route gavage, dose level Low, time 7 day
measured.endpoint: KIDNEY_L (g)

# molecule, measured.endpoint, unit.spec, val
data = [
    ("CCOc1ccc(NC(=O)CC(C)O)cc1 (stereo not given) [BUCETIN]", "KIDNEY_L", "g", 1.3),
    ("COC1=CC(=O)C[C@@H](C)[C@]12Oc1c(Cl)c(OC)cc(OC)c1C2=O [GRISEOFULVIN]", "KIDNEY_L", "g", 1.1),
    ("CCOC(=O)CCC(=O)O[C@H]1[C@H](O[C@@H]2[C@@H](C)[C@H](O[C@H]3C[C@@](C)(OC)[C@@H](O)[C@H](C)O3)[C@@H](C)C(=O)O[C@H](CC)[C@@](C)(O)[C@H](O)[C@@H](C)C(=O)[C@H](C)C[C@@]2(C)O)O[C@H](C)C[C@@H]1N(C)C [ERYTHROMYCIN ETHYLSUCCINATE]", "KIDNEY_L", "g", 1.1),
    ("NC(N)=Nc1nc(CSCCC(N)=NS(N)(=O)=O)cs1 [FAMOTIDINE]", "KIDNEY_L", "g", 1.1),
    ("COc1ccc2[nH]c([S+]([O-])Cc3ncc(C)c(OC)c3C)nc2c1 (stereo not given) [OMEPRAZOLE]", "KIDNEY_L", "g", 1.1),
]

---

# Organism: Rattus norvegicus
# test.description: Open TG-GATES - Regimen: Single
# Assay type: toxicity, organism-based, Sprague-Dawley
# Set-up: regimen Single, gender Male, age 6 weeks
# assay.conditions: in vivo, po, 0 mg/kg, 9 h, tissue Blood, route gavage, dose level Control

# molecule, RBC, x10_4/ul
measured = [
    ("COc1ccc2[nH]c([S+]([O-])Cc3ncc(C)c(OC)c3C)nc2c1 (configuration not stated) [OMEPRAZOLE]", 615.6),
    ("CCOC(=O)CCC(=O)O[C@H]1[C@H](O[C@@H]2[C@@H](C)[C@H](O[C@H]3C[C@@](C)(OC)[C@@H](O)[C@H](C)O3)[C@@H](C)C(=O)O[C@H](CC)[C@@](C)(O)[C@H](O)[C@@H](C)C(=O)[C@H](C)C[C@@]2(C)O)O[C@H](C)C[C@@H]1N(C)C [ERYTHROMYCIN ETHYLSUCCINATE]", 636.4),
    ("CC1=C(/C=C/C(C)=C/C=C/C(C)=C/CO)C(C)(C)CCC1 [RETINOL]", 608.2),
    ("NNC(=O)c1ccncc1 [ISONIAZID]", 617.4),
    ("O=C(CCCN1CCC(O)(c2ccc(Cl)cc2)CC1)c1ccc(F)cc1 [HALOPERIDOL]", 619.2),
    ("CN1C(=O)CN=C(c2ccccc2)c2cc(Cl)ccc21 [DIAZEPAM]", 628.4),
    ("C[C@@H]1C[C@H]2[C@@H]3CCC4=CC(=O)C=C[C@]4(C)[C@@]3(F)[C@@H](O)C[C@]2(C)[C@@]1(O)C(=O)CO [DEXAMETHASONE]", 626.8),
]
